Cited source: paper PMC7704496

target: TmCsp (cold shock protein) (Thermotoga maritima, UniProt O54310 1-66); test: Trp fluorescence quenching; 303 K; EMSA: 50 mM NaH2PO4 pH 6.5, 20 mM NaCl, 0.2 mM EDTA, room temperature 1 h, 20% gel in 1xTBE at 4 C; NMR: 50 mM sodium phosphate pH 6.5, 20 mM NaCl, 0.2 mM EDTA; conditions: protein: recombinant; tags: none stated; chain copies: 2; label: none (5'-fluorescein in EMSA); single strand
Sequence (O54310 whole entry): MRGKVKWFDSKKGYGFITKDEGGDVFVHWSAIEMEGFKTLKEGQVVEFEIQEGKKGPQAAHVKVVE
ASSAY_METRIC: log10(Kd) (log10 of the value in µM)
Lab note - Kd converted to log10 from values in µM.

# count of solved cases: 4
INSERT INTO assay_data (binder, observed_result) VALUES
  ('UUUUUUU (ssRNA) [(rU)7]', -1.97),
  ('CCCCCCC (ssDNA) [(dC)7]', 0.45),
  ('GGGGGGG (ssDNA) [(dG)7]', 0.53),
  ('AAAAAAA (ssDNA) [(dA)7]', 0.70);

Now look at this entry.
Q) Let me know recorded log10(Kd) for TTTTTTT (ssDNA) [(dT)7] , thanks.
A) -2.40
